Ref: a melting point compilation (Tetko et al.; mined from patent text by program, amines drawn as free bases though some values may be those of a salt)

MEASUREMENT LABEL: melting point

Incoming: Give the reported value of melting point for this record: CC(O)c1ccc(N)c(S(N)(=O)=O)c1 (stereo not given)
Outgoing: 160 to 162 °C

Incoming: Give the reported value of melting point for this record: COc1ccc(C2(C=O)C=CC=CC2)cc1OCCCC1(c2noc3cc(F)ccc23)CCNCC1 (stereo not given)
Outgoing: 140 to 141 °C

Incoming: Give the reported value of melting point for this record: O=C(c1ccccc1)c1ccc(NC(=O)C(O)(C(F)F)C(F)F)cc1
Outgoing: 139 to 142 °C

Incoming: Give the reported value of melting point for this record: CCN1C(=O)C(C)(C)C(=O)N(C)c2cc(CN(CCn3ccc4oc(C)cc4c3=O)Cc3ccc(OC)nc3C)ccc21
Outgoing: 155 to 156 °C

Incoming: Give the reported value of melting point for this record: O=C(NC(CO)CNS(=O)(=O)c1ccc(Oc2ccccc2)cc1)OCc1ccccc1 (stereo not given)
Outgoing: 86 to 89 °C

Incoming: Give the reported value of melting point for this record: Cc1nn(-c2cc(Oc3ccc(N)cc3)c(Cl)cc2F)c(=O)n1C(F)F
Outgoing: 133 to 135 °C
